- System: Plasmodium berghei
- ASSAY_NAME: Luciferase/luciferin-expressing antifolate-resistant parasites were used to infect a culture of HepG2 cells that were pre-incubated with compounds. Infected hepatocytes emit light due to the luciferase reaction. Assay results are presented as the percent inhibition of light emission compared to control. […]
- Assay type: functional
- EXPERIMENTAL_CONTEXT: sporozoite, PBLUC_HILL_SLOPE 2.78, PBLUC_R_SQUARED 0.395, read-out: LUCIFERASE INFECTION ASSAY - IC50
READOUT_KIND: pIC50
Please note pIC50 is a logarithmic value: minus log10 of concentration in mol/L. Answer with that number alone.

## Task Return pIC50 (reported value) for this molecule: O=C(c1cc(-c2cccc3ccccc23)nc2ccccc12)N1CCN(c2ncccn2)CC1
## Result 5.08
